Target: EDNRB (Homo sapiens, UniProt P24530)
Construct: purchased Promega (in-house HiBiT-GPCR construct library, NanoBRET)
Sequence (P24530 27-442): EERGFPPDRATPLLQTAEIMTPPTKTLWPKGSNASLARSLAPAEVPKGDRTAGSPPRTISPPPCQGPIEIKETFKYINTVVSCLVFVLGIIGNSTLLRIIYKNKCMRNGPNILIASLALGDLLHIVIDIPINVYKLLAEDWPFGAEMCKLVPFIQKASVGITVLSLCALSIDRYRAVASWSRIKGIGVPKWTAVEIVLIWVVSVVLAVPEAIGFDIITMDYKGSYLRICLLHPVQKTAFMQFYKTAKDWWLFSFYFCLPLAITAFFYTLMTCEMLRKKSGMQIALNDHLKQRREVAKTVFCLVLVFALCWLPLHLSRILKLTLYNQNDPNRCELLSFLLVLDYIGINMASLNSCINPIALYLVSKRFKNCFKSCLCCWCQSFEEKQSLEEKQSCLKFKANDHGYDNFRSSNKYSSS
Assay: NanoBRET screen HiBiT-EDNRB in HEK293
Format: binding
Details: EDNRB; tracer 1μM
For each record, write down the corresponding NanoBRET Fold Response.

query: Recall the reported NanoBRET Fold Response of `Cc1cc2c(s1)Nc1ccccc1N=C2N1CCN(CCCNC(=O)CCOCCOCCOCCOCCNC(=O)CCc2ccc3n2[B-](F)(F)[N+]2=C(c4ccc[nH]4)C=CC2=C3)CC1` when tested on EDNRB (Homo sapiens, UniProt P24530).
result: 0.89

query: Recall the reported NanoBRET Fold Response of `N#CN=C(NCCCOc1cccc(CN2CCCCC2)c1)NCCNC(=O)CCOCCOCCOCCOCCNC(=O)CCc1ccc2n1[B-](F)(F)[N+]1=C(c3ccc[nH]3)C=CC1=C2` when tested on EDNRB (Homo sapiens, UniProt P24530).
result: 1.02

query: Recall the reported NanoBRET Fold Response of `CC(C)N(CC[C@H](c1ccccc1)c1cc(CCNC(=O)c2ccc(CNC(=O)CCc3ccc4n3[B-](F)(F)[N+]3=C(c5ccc[nH]5)C=CC3=C4)cc2)ccc1O)C(C)C` when tested on EDNRB (Homo sapiens, UniProt P24530).
result: 0.98

query: Recall the reported NanoBRET Fold Response of `CCCn1c(=O)c2[nH]c(-c3ccc(OCC(=O)NCCNC(=O)CCOCCNC(=O)c4ccc(CNC(=O)CCc5ccc6n5[B-](F)(F)[N+]5=C(c7ccc[nH]7)C=CC5=C6)cc4)cc3)nc2n(CCC)c1=O` when tested on EDNRB (Homo sapiens, UniProt P24530).
result: 1.18

query: Recall the reported NanoBRET Fold Response of `CC(C)N(CC[C@H](c1ccccc1)c1cc(CCNC(=O)CCOCCOCCOCCOCCNC(=O)CCc2ccc3n2[B-](F)(F)[N+]2=C(c4ccc[nH]4)C=CC2=C3)ccc1O)C(C)C` when tested on EDNRB (Homo sapiens, UniProt P24530).
result: 1.03

query: Recall the reported NanoBRET Fold Response of `COc1ccccc1N1CCN(CCCCN2C(=O)c3ccc(CNC(=O)CCOCCNC(=O)c4ccc(CNC(=O)CCc5ccc6n5[B-](F)(F)[N+]5=C(c7ccc[nH]7)C=CC5=C6)cc4)cc3C2=O)CC1` when tested on EDNRB (Homo sapiens, UniProt P24530).
result: 1.00
